// provenance: patent US8124788B2

- target.entity: human μ opiate receptor (Homo sapiens)
- Construct: purchased PerkinElmer Life Sciences, Zaventem, Belgium RB-HOM; host or cells: CHO-K1 cells (recombinant expression)
- run.description: Affinity for the human μ opiate receptor ([3H]-naloxone displacement, CHO-K1 membrane preparation, SPA)
- Type: binding
- assay.context: compounds prepared via automated synthesis; single measurements at a test concentration of 1 μM
value.type: μ opioid receptor [1 μmol], % inhibition (%)
Give the value in % but do not write % after it.

INPUT: Find the recorded μ opioid receptor [1 μmol], % inhibition belonging to CN(C)C(c1ccc(Cl)cc1)C1CCC2(CC1)c1[nH]c3ccccc3c1CCN2C(=O)COCc1ccccc1 (stereo not drawn) and report it.
OUTPUT: 35

INPUT: Consider the compound shown here: CC(=Cc1ccccc1)C(=O)N1CCc2c([nH]c3ccccc23)C12CCC(C(c1ccc(Cl)cc1)N(C)C)CC2 (stereo not drawn) What is its recorded μ opioid receptor [1 μmol], % inhibition?
OUTPUT: 13

INPUT: Which value of μ opioid receptor [1 μmol], % inhibition has been reported for CN(C)C(c1ccccc1)C1CCC2(CC1)c1[nH]c3ccccc3c1CCN2C(=O)C1CCCCC1 (stereo not drawn) in the records?
OUTPUT: 29

INPUT: For the compound shown here, CC(Oc1ccccc1)C(=O)N1CCc2c([nH]c3ccccc23)C12CCC(C(c1cccc(F)c1)N(C)C)CC2 (stereo not drawn) , give the reported μ opioid receptor [1 μmol], % inhibition.
OUTPUT: 55

INPUT: Need μ opioid receptor [1 μmol], % inhibition, item COc1ccc(CC(=O)N2CCc3c([nH]c4ccccc34)C23CCC(C(c2cccc(F)c2)N(C)C)CC3)cc1OC (stereo not drawn)
OUTPUT: 25

More entries:
INPUT: Would you kindly share the measured μ opioid receptor [1 μmol], % inhibition for CN(C)C(c1ccc(Cl)cc1)C1CCC2(CC1)c1[nH]c3ccccc3c1CCN2C(=O)Cc1ccc(F)cc1 (stereo not drawn) ?
OUTPUT: 20

INPUT: // returns reported μ opioid receptor [1 μmol], % inhibition for input CN(C)C(c1ccccc1)C1CCC2(CC1)c1[nH]c3ccccc3c1CCN2C(=O)Cc1ccc(F)cc1 (stereo not drawn)
OUTPUT: 39

INPUT: Quick one: μ opioid receptor [1 μmol], % inhibition of CN(C)C(c1cccc(F)c1)C1CCC2(CC1)c1[nH]c3ccccc3c1CCN2C(=O)C1CCCCC1 (stereo not drawn) ?
OUTPUT: 26

INPUT: Could you share which μ opioid receptor [1 μmol], % inhibition value was measured for CCCCC(CC)C(=O)N1CCc2c([nH]c3ccccc23)C12CCC(C(c1cccc(F)c1)N(C)C)CC2 (stereo not drawn) ?
OUTPUT: 13

====

- target.entity: human μ opiate receptor (Homo sapiens, UniProt P35372)
- Construct: purchased PerkinElmer Life Sciences, Zaventem, Belgium RB-HOM; host or cells: CHO-K1 cells (recombinant expression)
- Sequence (P35372 whole entry): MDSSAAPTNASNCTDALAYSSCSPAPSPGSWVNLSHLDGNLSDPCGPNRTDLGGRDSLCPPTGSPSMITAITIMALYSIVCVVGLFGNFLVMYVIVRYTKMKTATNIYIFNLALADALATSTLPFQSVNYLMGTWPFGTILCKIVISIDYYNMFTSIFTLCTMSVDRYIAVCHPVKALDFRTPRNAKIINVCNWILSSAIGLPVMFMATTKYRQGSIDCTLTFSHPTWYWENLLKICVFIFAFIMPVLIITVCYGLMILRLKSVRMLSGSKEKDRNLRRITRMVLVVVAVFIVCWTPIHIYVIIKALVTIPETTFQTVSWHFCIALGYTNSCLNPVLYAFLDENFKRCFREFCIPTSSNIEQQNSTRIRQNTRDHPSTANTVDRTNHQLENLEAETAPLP
- run.description: Affinity for the human μ opiate receptor ([3H]-naloxone displacement, CHO-K1 membrane preparation, SPA)
- Assay type: binding
- assay.context: compounds prepared via automated synthesis; single measurements at a test concentration of 1 μM
Some compounds, each annotated with its measured μ opioid receptor [1 μmol], % inhibition.
Kindly provide the numeric value in % only, without the unit symbol.

Below are worked cases with known answers.
INPUT: Entry CC(=O)N1CCc2c([nH]c3ccccc23)C12CCC(C(c1ccccc1)N(C)C)CC2 (stereo not shown) [Compound 79] : reported μ opioid receptor [1 μmol], % inhibition = ?
OUTPUT: 4

INPUT: Could you share which μ opioid receptor [1 μmol], % inhibition value was measured for CN(C)C(c1cccc(F)c1)C1CCC2(CC1)c1[nH]c3ccccc3c1CCN2C(=O)Cc1cccs1 (stereo not shown) [Compound 93] ?
OUTPUT: 19

INPUT: May I ask what μ opioid receptor [1 μmol], % inhibition has been recorded for CN(C)C(c1ccc(F)cc1)C1CCC2(CC1)c1[nH]c3ccccc3c1CCN2C(=O)COCc1ccccc1 (stereo not shown) [Compound 88] ?
OUTPUT: 11

--- query ---
INPUT: Requested read-out: μ opioid receptor [1 μmol], % inhibition. Entry: CN(C)C(c1ccc(Cl)cc1)C1CCC2(CC1)c1[nH]c3ccccc3c1CCN2C(=O)COc1ccc(Cl)cc1 (stereo not shown) [Compound 77]
OUTPUT: 17

====

- target.entity: human μ opiate receptor (Homo sapiens, UniProt P35372)
- Construct: purchased PerkinElmer Life Sciences, Zaventem, Belgium RB-HOM; host or cells: CHO-K1 cells (recombinant expression)
- run.description: Affinity for the human μ opiate receptor ([3H]-naloxone displacement, CHO-K1 membrane preparation, SPA)
- Assay type: binding
- assay.context: 1 μM test substance; displacement of [3H]-naloxone; read-out: μ opioid receptor [1 μM], % inhibition
value.type: inhibition at 1 µM (%)
Unit % implied. Number only.

Example entries begin here.
INPUT: What value of inhibition at 1 µM has been recorded for this entry: CN(C)C(c1ccccc1)C1CCC2(CC1)OCCc1c2[nH]c2ccc(F)cc12 (centres unmarked) [Compound 37]
OUTPUT: 74

INPUT: Form field: reported inhibition at 1 µM of CN(C)C(c1cccs1)C1CCC2(CC1)OCCc1c2[nH]c2ccccc12 (centres unmarked) [Compound 29]
OUTPUT: 99

INPUT: Requested field: inhibition at 1 µM. Item: CN(C)C(CCc1ccccc1)C1CCC2(CC1)OCCc1c2[nH]c2ccccc12 (centres unmarked) [Compound 28]
OUTPUT: 92

INPUT: Which inhibition at 1 µM value belongs to CN(C)C(c1cccc(F)c1)C1CCC2(CC1)OCCc1c2[nH]c2ccccc12 (centres unmarked) [Compound 26] ?
OUTPUT: 94

INPUT: Can you share its inhibition at 1 µM? I mean this compound: Cc1ccc2[nH]c3c(c2c1)CC(C)OC31CCC(C(c2ccccc2)N(C)C)CC1 (centres unmarked) [Compound 42]
OUTPUT: 101

***
INPUT: Please give the measured inhibition at 1 µM for this compound: CN(C)C(c1ccccc1)C1CCC2(CC1)OCCc1c2[nH]c2ccccc12 (centres unmarked) [Compound 27]
OUTPUT: 99

INPUT: Recorded inhibition at 1 µM for CN(C)C(c1ccc(Cl)cc1)C1CCC2(CC1)OCCc1c2[nH]c2ccccc12 (centres unmarked) [Compound 30] , please?
OUTPUT: 84

INPUT: Data request, read-out inhibition at 1 µM, for Cc1ccc2[nH]c3c(c2c1)CC(C)OC31CCC(C(c2cccc(F)c2)N(C)C)CC1 (centres unmarked) [Compound 41]
OUTPUT: 88

INPUT: Entry CN(C)C(c1cccc(F)c1)C1CCC2(CC1)OCCc1c2[nH]c2ccc(F)cc12 (centres unmarked) [Compound 36] : reported inhibition at 1 µM = ?
OUTPUT: 102

INPUT: Need inhibition at 1 µM, item CN(C)C(c1ccccc1)C1CCC2(CC1)NCCc1c2[nH]c2ccccc12 (centres unmarked) [Compound 19]
OUTPUT: 81

INPUT: GET /values?readout=inhibition at 1 µM&item= CN(C)C(c1ccc(F)cc1)C1CCC2(CC1)OCCc1c2[nH]c2ccc(F)cc12 (centres unmarked) [Compound 35]
OUTPUT: 98

INPUT: Any idea what inhibition at 1 µM was measured for CN(C)C(c1ccc(Cl)cc1)C1CCC2(CC1)OCCc1c2[nH]c2ccc(F)cc12 (centres unmarked) [Compound 38] ?
OUTPUT: 84

INPUT: Returns the measured inhibition at 1 µM for the input compound. Input: CC1Cc2c([nH]c3ccc(F)cc23)C2(CCC(C(c3ccccc3)N(C)C)CC2)O1 (centres unmarked) [Compound 53]
OUTPUT: 97

INPUT: Fill in: inhibition at 1 µM of Cc1ccc2[nH]c3c(c2c1)CC(C)OC31CCC(C(c2ccc(Cl)cc2)N(C)C)CC1 (centres unmarked) [Compound 44] is ___
OUTPUT: 72

INPUT: State the recorded inhibition at 1 µM for this entry: CN(C)C(c1cccc(F)c1)C1CCC2(CC1)NCCc1c2[nH]c2ccccc12 (centres unmarked) [Compound 18]
OUTPUT: 74

INPUT: May I ask what inhibition at 1 µM has been recorded for CN(C)C(c1ccc(F)cc1)C1CCC2(CC1)OCCc1c2[nH]c2ccccc12 (centres unmarked) [Compound 25] ?
OUTPUT: 86

INPUT: Return reported inhibition at 1 µM; argument: CN(C)C(CCc1ccccc1)C1CCC2(CC1)NCCc1c2[nH]c2ccccc12 (centres unmarked) [Compound 20]
OUTPUT: 97

====

- target.entity: Serotonin reuptake (Rattus norvegicus, UniProt P31652)
- Construct: synaptosomes are freshly isolated from areas of the rat brain; from tissue
- Sequence (P31652 whole entry): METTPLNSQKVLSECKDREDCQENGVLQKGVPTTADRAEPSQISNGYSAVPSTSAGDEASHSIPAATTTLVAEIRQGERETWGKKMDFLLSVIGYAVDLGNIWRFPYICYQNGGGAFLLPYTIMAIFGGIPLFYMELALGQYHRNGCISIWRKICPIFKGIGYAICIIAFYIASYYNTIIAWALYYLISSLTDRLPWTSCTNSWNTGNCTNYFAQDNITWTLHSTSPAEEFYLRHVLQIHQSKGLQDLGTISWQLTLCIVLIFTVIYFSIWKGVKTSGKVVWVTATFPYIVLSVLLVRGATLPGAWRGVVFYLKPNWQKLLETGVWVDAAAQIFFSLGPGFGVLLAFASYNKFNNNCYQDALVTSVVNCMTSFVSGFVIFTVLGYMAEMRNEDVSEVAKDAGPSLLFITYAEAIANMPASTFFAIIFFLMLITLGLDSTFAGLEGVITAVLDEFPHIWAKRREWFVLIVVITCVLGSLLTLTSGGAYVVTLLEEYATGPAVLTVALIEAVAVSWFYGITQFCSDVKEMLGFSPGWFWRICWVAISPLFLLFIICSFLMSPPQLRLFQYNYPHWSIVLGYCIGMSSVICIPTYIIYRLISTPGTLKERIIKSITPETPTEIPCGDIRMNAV
- run.description: Inhibition of serotonin (5HT) reuptake in rat brain synaptosomes
- Type: biochemical
value.type: inhibition at 10 µM
Output should be the measured figure followed by the unit it is expressed in.

Below are worked cases with known answers.
INPUT: Entry CN(C)C(c1ccc(Cl)cc1)C1CCC2(CC1)OCCc1c2[nH]c2ccc(F)cc12 (centres unmarked) has what inhibition at 10 µM?
OUTPUT: 57%

INPUT: Given the entry CN(C)C(CCc1ccccc1)C1CCC2(CC1)OCCc1c2[nH]c2ccccc12 (centres unmarked) , report its measured inhibition at 10 µM.
OUTPUT: 57%

INPUT: Name the reported inhibition at 10 µM value associated with the compound CN(C)C(c1ccc(F)cc1)C1CCC2(CC1)OCCc1c2[nH]c2ccccc12 (centres unmarked)
OUTPUT: 68%

INPUT: Report inhibition at 10 µM for CN(C)C(CCc1ccccc1)C1CCC2(CC1)NCCc1c2[nH]c2ccccc12 (centres unmarked) please.
OUTPUT: 84%

INPUT: What value of measured inhibition at 10 µM is listed for CN(C)C(c1cccc(F)c1)C1CCC2(CC1)NCCc1c2[nH]c2ccccc12 (centres unmarked) ?
OUTPUT: 64%

INPUT: inhibition at 10 µM lookup needed for CN(C)C(c1cccs1)C1CCC2(CC1)OCCc1c2[nH]c2ccccc12 (centres unmarked) , thanks.
OUTPUT: 45%

INPUT: Which inhibition at 10 µM reading was recorded for the compound CC1Cc2c([nH]c3ccc(F)cc23)C2(CCC(C(c3ccccc3)N(C)C)CC2)O1 (centres unmarked) ?
OUTPUT: 60%

Next compound, inhibition at 10 µM to be filled in.
INPUT: Quick one: inhibition at 10 µM for CN(C)C(c1ccccc1)C1CCC2(CC1)OCCc1c2[nH]c2ccccc12 (centres unmarked) ?
OUTPUT: 73%
